Could you please report measured kon for the items listed next?
Target: T1, recombinant human CD63 extracellular loop 2 expressed with a C-terminal Myc-Myc-hexahistidine (human)
T1 construct: also called hCD63 EC loop 2-MMH; human CD63 EC loop 2-MMH
T1 sequence (chain, as listed by the source limits assumed): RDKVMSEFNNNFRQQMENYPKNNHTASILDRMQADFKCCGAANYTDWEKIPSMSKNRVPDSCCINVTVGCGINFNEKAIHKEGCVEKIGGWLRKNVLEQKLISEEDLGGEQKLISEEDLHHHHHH
Assay: SPR Biacore, mAb captured, 37C
One number for each entry, in M⁻¹ s⁻¹.

Recorded kon, per entry:
INSERT INTO measurements (binder, experimental_result) VALUES
  ('H2M12395N (antibody, V domains shown, also called H2aM12395N) VH: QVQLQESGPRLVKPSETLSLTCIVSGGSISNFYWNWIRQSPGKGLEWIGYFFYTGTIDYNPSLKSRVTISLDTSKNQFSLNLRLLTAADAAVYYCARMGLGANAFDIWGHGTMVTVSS VL: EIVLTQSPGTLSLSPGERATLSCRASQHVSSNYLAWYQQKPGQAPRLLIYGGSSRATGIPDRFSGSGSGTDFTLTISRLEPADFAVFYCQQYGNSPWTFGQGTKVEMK', 165000),
  ('H1M12388N (antibody, V domains shown) VH: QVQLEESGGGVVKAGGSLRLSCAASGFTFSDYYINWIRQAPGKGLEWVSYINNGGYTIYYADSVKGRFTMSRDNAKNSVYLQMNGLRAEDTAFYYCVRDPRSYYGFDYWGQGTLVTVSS VL: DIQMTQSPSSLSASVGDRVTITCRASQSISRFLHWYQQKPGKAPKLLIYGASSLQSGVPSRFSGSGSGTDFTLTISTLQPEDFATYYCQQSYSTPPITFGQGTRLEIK', 651000),
  ('H2M13022N (antibody, V domains shown, also called H2bM13022N) VH: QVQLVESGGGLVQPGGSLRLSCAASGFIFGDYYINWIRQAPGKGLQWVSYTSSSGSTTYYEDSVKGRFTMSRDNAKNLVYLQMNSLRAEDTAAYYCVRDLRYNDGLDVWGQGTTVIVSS VL: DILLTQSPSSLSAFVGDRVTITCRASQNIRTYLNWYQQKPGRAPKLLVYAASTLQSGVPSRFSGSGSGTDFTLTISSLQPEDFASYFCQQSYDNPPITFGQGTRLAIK', 311000),
  ('H2M12385N (antibody, V domains shown, also called H2bM12385N; H2bM12385) VH: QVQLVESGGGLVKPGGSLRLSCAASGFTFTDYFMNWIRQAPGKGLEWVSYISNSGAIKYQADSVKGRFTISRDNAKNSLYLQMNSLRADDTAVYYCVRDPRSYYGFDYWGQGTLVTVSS VL: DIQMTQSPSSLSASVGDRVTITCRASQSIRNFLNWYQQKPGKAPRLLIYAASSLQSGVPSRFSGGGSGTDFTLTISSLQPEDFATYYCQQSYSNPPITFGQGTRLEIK', 271000);

Please turn your attention to the following entry.
# get_value(readout='kon', item= H1M12386N (antibody, V domains shown) VH: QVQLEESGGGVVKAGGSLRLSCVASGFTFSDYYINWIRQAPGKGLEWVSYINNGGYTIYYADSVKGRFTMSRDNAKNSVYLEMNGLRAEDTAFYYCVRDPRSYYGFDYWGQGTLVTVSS VL: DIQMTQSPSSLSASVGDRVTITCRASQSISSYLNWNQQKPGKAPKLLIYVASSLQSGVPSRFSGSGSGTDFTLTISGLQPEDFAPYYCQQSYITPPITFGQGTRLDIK )
650000
